The origin of these recorded values is PubChem BioAssay.

procedureSummary: growth of efflux-deficient E. coli DRC39 – strain DRC39, OD650, 48 h, E. coli filamentation inducers, primary screen (AID 1179);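 also: screen aims at cell division blockers that make cells filament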
particulars: E. coli DRC39 delta-acrAB growth, higher = more signal, called active from +8 up or from −8 down
We'd kindly ask you to apply these z-score classes: 1 = under -0.4, 2 = from -0.4 up to 0.4, 3 = 0.4 and over

# count of solved cases: 2
compound | category
COCCOC(=O)N1C(=O)[C@@]2(c3cc(C#CCCO)ccc31)[C@H](c1ccc(OCCO)cc1)N1[C@H](c3ccccc3)[C@H](c3ccccc3)OC(=O)[C@H]1[C@@H]2C(=O)N1CCCCCCC1 | 1
C=CCNC(=O)[C@H]1[C@@H]2C(=O)O[C@@H](c3ccccc3)[C@@H](c3ccccc3)N2[C@@H](c2ccc(OCCO)cc2)[C@]12C(=O)Nc1ccc(C#CC3(O)CCCCCC3)cc12 | 3

Which z-score category applies to `CN(C)CCCC[C@@H]1NC(=O)[C@@H]2C[C@H](C(=O)NCCCCCN)[C@H](c3cccc(OCCO)c3)N2C1=O` here?
3

Dear colleague, I would appreciate it if you could identify the bin for `CC(C)C[C@@H]1NC(=O)[C@@H]2C[C@H](C(=O)NCCCCCCNC(=O)CS)[C@H](c3cccc(OCCO)c3)N2C1=O` and reply at your convenience.
1

Which class does `COCCOC(=O)N1C(=O)[C@@]2(c3cc(C#CCC(C(=O)OC)C(=O)OC)ccc31)[C@H](C(=O)Nc1nc3ccccc3s1)[C@H]1C(=O)O[C@H](c3ccccc3)[C@H](c3ccccc3)N1[C@@H]2c1ccc(OCCO)cc1` fall in?
3

Which class does `COCCOC(=O)N1C(=O)[C@@]2(c3cc(C#CCC(C(=O)OC)C(=O)OC)ccc31)[C@H](C(N)=O)[C@H]1C(=O)O[C@H](c3ccccc3)[C@H](c3ccccc3)N1[C@@H]2c1ccc(O)cc1` fall in?
3

Which category does the recorded z-score put COc1ccc(C(O)C2C=CC3C(=O)N(C)C(=O)C3N2N(c2ccccc2)c2ccccc2)cc1 (centres undefined) in?
2

Category of `C=C(COC)C(=O)CC[C@H](OC(=O)c1cccnc1)c1ccc(OCCO)cc1` :
1

Could you place `O=C1[C@@H]2[C@@H](CC(COc3ccccc3)=C([C@H](O)CCc3ccccc3)[C@@H]2CO)C(=O)N1Cc1ccccc1` in its proper category? Many thanks.
2

Bin? O=C1NC(=O)C2C1C=CC(C(O)c1ccc(B(O)O)cc1)N2Nc1ccc(Cl)cc1Cl (centres undefined)
1

Just checking, what class would you give CCC(CC)C(O)C1C=CC2C(=O)N(c3ccccc3)C(=O)C2N1Nc1ccccc1F (centres undefined) here?
2

Class (by measured z-score) for CC(C)(C)N1CC=CC23O[C@@H]4C=CCCOC(=O)C4[C@H]2C(=O)N(CCCCCCO)[C@@H]3C1=O (some centres undefined)
3

Entry CCCCC(O)C1C=CC2C(=O)N(c3ccccc3)C(=O)C2N1Nc1ccc([N+](=O)[O-])cc1 (centres undefined) belongs to which category?
2

----------
procedureSummary: JC-1 mitochondrial signal, unstimulated adipocytes – cell-based, JC-1 fluorescence, 3T3-L1 adipocytes, 24 h, 100 nL compound, profiling panel (AID 1168); also: test concentration not given here
particulars: JC-1 mitochondrial fluorescence, higher = more signal, called active from +8 up or from −8 down
Recorded z-score by entry
No unit in the answer, only the number.

// known answers, use as guide
compound | z-score
CCOc1cc(C(O)C2C=CC3C(=O)N(c4ccccc4)C(=O)C3N2Nc2ccccc2F)ccc1O (centres undefined) | -0.945
CCCNC(=O)[C@@]1(Sc2ccc(C)cc2)CC(=O)N(Cc2ccccc2Cl)[C@@H]1c1ccc(CO)cc1I | 0.667
O=C1C=C(c2ccccc2)C(=O)C2=C1CC([C@H]1Oc3ccccc3S(=O)(=O)N3CCC[C@@H]13)=CC2 | -2.49

Next, consider the following compound.
Bench note: what z-score did CN1C(=O)C2C(C1=O)C1C=C(CCCO)C2C(C2CC2)N1Cc1cccc(OC(F)(F)F)c1 (centres undefined) show?
-0.423

----------
procedureSummary: S6 kinase pathway phospho-S6 level changes – cell-based, A549, cytoblot, luminescence, serum-stimulated, primary screen (AID 1158);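 also: serum-stimulated A549 lung adenocarcinoma cells; signal is phosphorylated S6 detected by cytoblot immunostaining with HRP secondary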
particulars: 5 h, higher = more signal
Categories are defined by ranges of z-score, namely zone 1: < -0.3; zone 2: ≥ -0.3 and < 1; zone 3: ≥ 1

compound | category
COC(=O)c1cccc([C@H]2OC(=CC(=O)OC(C)C)C[C@@H](c3cccc(C(=O)OC)c3)O2)c1 | zone 2
O=C1O[C@@H](c2ccccc2)[C@@H](c2ccccc2)N2[C@@H](c3ccc(OCCO)cc3)[C@]3(C(=O)Nc4ccc(C#CCCO)cc43)[C@@H](C(=O)O)[C@H]12 | zone 2

Okay, next one:
Which of the defined bands does the recorded z-score of `C=C(COC)C(=O)CC[C@H](OC(=O)c1cccnc1)c1ccc(OCCO)cc1` sit within?
zone 2

----------
In this section we review reported composite z-score values for a set of molecules.
procedureSummary: probe aWnt5a binding to arrayed compounds – biochemical, biotinylated probe, 635/667 nm fluorescence, primary screen (AID 1113);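 also: score merges 667 nm fluorescence intensity with signal-to-noise per printed feature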
particulars: small-molecule microarray, higher = more signal
Enter the number alone.

Worked cases, answers included:
molecule | experimentalResult
COCCOC(=O)N1C(=O)[C@@]2(c3cc(C#CCC(C(=O)OC)C(=O)OC)ccc31)[C@H](c1ccc(O)cc1)N1[C@H](c3ccccc3)[C@H](c3ccccc3)OC(=O)[C@H]1[C@@H]2C(=O)Nc1nc2ccccc2s1 | -0.0684
O=C(NCc1ccccc1)[C@@H]1c2ccccc2C(=O)N(Cc2ccc(OC(F)(F)F)cc2)[C@H]1c1ccc(CO)cc1 | -0.0735
C[C@]1(C(=O)O)c2ccccc2C(=O)N(Cc2cc(F)cc(C(F)(F)F)c2)[C@H]1c1ccc(CO)cc1 | 0.0044
COc1ccc([Si](C)(C)[C@@H]2[C@@H](CC(=O)N(CCO)Cc3ccccc3)O[C@]3(C(=O)N(Cc4ccc(I)cc4)c4ccccc43)[C@H]2C)cc1 | -0.0718
CC(C)NC(=O)[C@@]1(C)c2ccccc2C(=O)N(Cc2ccccc2)[C@H]1c1ccc(CO)cc1 | -0.0819
C=C(COC)/C(=C/C[C@@H](OC(C)=O)c1ccccc1OCCO)c1cnc2ccccc2c1 | -0.1

Name the reported composite z-score value associated with the molecule `C[N+](C)(C)CCCC[C@@H]1NC(=O)[C@H]2C[C@@H](C(=O)NCCCCCNC(=O)CS)[C@@H](c3cccc(OCCO)c3)N2C1=O`
-0.103

Need composite z-score of `COc1ccc([Si](C)(C)[C@@H]2[C@@H](CC(=O)N3Cc4ccccc4C[C@H]3CO)O[C@]3(C(=O)N(Cc4cccc(N5CCOC5=O)c4)c4ccccc43)[C@H]2C)cc1` , thanks.
-0.0684

Form field: reported composite z-score of `C=C(CCCC)/C(=C/C[C@H](OC(C)=O)c1cccc(OCCO)c1)c1cnc2ccccc2c1`
-0.0684

----------
Test system: Sonic hedgehog protein (Shh)
procedureSummary: Sonic hedgehog microarray binding compounds – biochemical, small-molecule microarray, 635/667 nm fluorescence, primary screen (AID 1151);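 also: Shh protein binding to compounds spotted on small-molecule microarray slides; score combines spot fluorescence intensity with signal-to-noise across triplicate slides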
particulars: 635 nm fluorescence, higher = more signal
Record true (1) whenever composite z-score is at 0.5 or higher; record false (0) when lower.

A selection of reference data follows.
compound | category
O=C1N(Cc2ccccc2)c2ccccc2C[C@@]12COC(c1ccc(OCCCO)cc1)=N2 | false (0)
COC(=O)[C@@]1(Cc2ccc(OC)cc2)[C@H]2c3cc(C(=O)N4CCCC4)n(CCn4cc([N+](=O)[O-])nc4C)c3C[C@H]2CN1C(=O)c1ccccc1 | false (0)

Assess whether reported composite z-score for `O=C1C=C(c2ccccc2)C(=O)C2=C1CC([C@H]1Oc3ccccc3S(=O)(=O)N3CCC[C@@H]13)=CC2` sits at 0.5 or higher.
false (0)

Tell me whether composite z-score is at least 0.5 here: `C=CCNC(=O)[C@H]1[C@@H]2C(=O)O[C@@H](c3ccccc3)[C@@H](c3ccccc3)N2[C@@H](c2ccccc2OCCO)[C@]12C(=O)N(C(=O)OCCOC)c1ccc(C#Cc3ccc(OC)cc3)cc12`
false (0)

Textbook exercise: given the entry C=C(C)[C@@H]1CC=C(C(O)C2C=CC3C(=O)N(c4ccccc4)C(=O)C3N2Nc2ccc([N+](=O)[O-])cc2)CC1 (some centres not stated) , state whether its composite z-score is greater than or equal to 0.5.
true (1)

// inclusive: composite z-score at least 0.5? input: `COc1ccc(C(=O)Nc2ccc3c(c2)[C@@]2(O[C@H](CCO)[C@@H]([Si](C)(C)c4ccc(OC)cc4)[C@@H]2C)C(=O)N3Cc2ccccc2)cc1`
true (1)

Given the entry `COc1ccc(C(=O)Nc2cccc(CN3C(=O)[C@]4(O[C@H](CC(=O)N5Cc6ccccc6C[C@H]5CO)[C@@H]([Si](C)(C)c5ccc(OC)cc5)[C@@H]4C)c4ccccc43)c2)cc1` , answer whether its composite z-score meets or surpasses 0.5.
true (1)

API: above_or_equal(metric=composite z-score, cutoff=0.5) for item COc1cc(C(O)C2C=CC3C(=O)N(c4ccccc4)C(=O)C3N2Nc2ccccc2F)cc(OC)c1OC (configuration not stated)
false (0)

# check: composite z-score of `CC(C)NC(=O)[C@@]1(c2ccc([N+](=O)[O-])cc2)CC(=O)N(CC23CC4CC(CC(C4)C2)C3)[C@@H]1c1ccc(CO)cc1` is greater than or equal to 0.5
true (1)

Threshold query (composite z-score >= 0.5) on `COC(=O)[C@@]1(Cc2ccc(F)cc2)[C@H]2c3cc(C(=O)N4CCCC4)n(Cc4cc(F)cc5c4OCOC5)c3C[C@H]2CN1C(=O)c1ccccc1`
false (0)

Is composite z-score for [N-]=[N+]=NCc1ccccc1[C@@H]1OC(c2ccc(OCCCO)cc2)=N[C@]1(Cc1ccccc1N=[N+]=[N-])C(=O)NCC(O)CO (some centres not stated) at or above 0.5?
false (0)

Could you tell me if the measured composite z-score of `[N-]=[N+]=Nc1ccccc1C[C@@]1(C(=O)NCc2ccccc2)N=C(c2ccc(OCCCO)cc2)O[C@@H]1c1ccccc1N=[N+]=[N-]` reaches 0.5 or more?
false (0)

Is it the case that `CC(C)[Si](C#CCCc1ccccc1)(O[C@H](c1ccccc1)c1cn(Cc2ccccc2)nn1)C(C)C` has composite z-score reaching or exceeding 0.5?
true (1)

Decide: composite z-score of `COc1ccc(C#Cc2ccc3c(c2)[C@]2(C(=O)N3)[C@H](C(=O)O)[C@H]3C(=O)O[C@H](c4ccccc4)[C@H](c4ccccc4)N3[C@@H]2c2ccccc2OCCO)cc1` >= 0.5?
true (1)

Given the entry `COC(=O)[C@@]1(Cc2ccc(F)cc2)[C@H]2c3cc(C(=O)N4CCCC4)n(CCc4ccccn4)c3C[C@H]2CN1C(=O)c1ccccc1` , answer whether its composite z-score meets or surpasses 0.5.
false (0)

Entry [N-]=[N+]=Nc1ccccc1[C@@H]1OC(c2ccc(OCCCO)cc2)=N[C@]1(CCS(=O)(=O)c1ccccc1)C(=O)NCC(O)CO (some centres not stated) : is its composite z-score no less than 0.5?
false (0)

I'd appreciate it if you could say whether `COc1ccc([Si](C)(C)[C@H]2[C@H](CCO)O[C@@]3(C(=O)N(Cc4cccc(N5C(=O)c6ccccc6Oc6ccccc65)c4)c4ccccc43)[C@@H]2C)cc1` has composite z-score at least equal to 0.5.
true (1)

Is it the case that C=CCC(OC(C)=O)[C@@H]1[C@@H](N(Cc2cccc3ccccc23)C(=O)Cc2ccc(OC)cc2)c2cc(OCCCO)ccc2N1C(=O)Cc1ccc2ccccc2c1 (some centres not stated) has composite z-score reaching or exceeding 0.5?
false (0)

Kindly determine if composite z-score recorded for `COc1cc(CO)cc(I)c1O[C@H]1C=C(C(=O)NCCO)C[C@@H](NC2CCCCCC2)[C@@H]1O` is above or exactly 0.5.
true (1)

Hi, just wondering whether `C=CCN1C(=O)[C@]2(O[C@H](CCn3cc([C@H](O)c4ccccc4)nn3)[C@@H]([Si](C)(C)c3ccc(OC)cc3)[C@@H]2C)c2cc(NC(=O)c3ccc(OC)cc3)ccc21` shows composite z-score of 0.5 or higher.
true (1)

Could you verify whether the entry `CC(C)NC(=O)[C@@H]1c2ccccc2C(=O)N(Cc2ccc(OC(F)(F)F)cc2)[C@H]1c1ccc(CO)cc1` shows composite z-score of no less than 0.5?
true (1)
